# System: HeLa
# PROCEDURE TEXT: Antiproliferative activity against human HeLa cells assessed as cell growth inhibition at 10 uM incubated for 48 hrs by CCK8 assay relative to control
# Type: functional
# CONDITION: read-out: GI

# MOLECULE, inhibition of growth at 10 µM
records = [
    ("COc1ccc2c(c1OC)C(=O)O[C@@H]2[C@H]1c2c(c(C3CCOCC3)c3c(c2OC)OCO3)CCN1C(=O)OC(C)(C)C", "< 5%"),
    ("COc1ccc2c(c1OC)C(=O)O[C@@H]2[C@H]1c2c(c(C3CCC3)c3c(c2OC)OCO3)CCN1C(=O)OC(C)(C)C", "< 5%"),
    ("COc1ccc2c(c1OC)C(=O)O[C@@H]2[C@H]1c2c(c(CCNC(=O)OC(C)(C)C)c3c(c2OC)OCO3)CCN1C(=O)OC(C)(C)C", "< 5%"),
    ("COc1ccc2c(c1OC)C(=O)O[C@@H]2[C@H]1c2c(c(CCCCCC#N)c3c(c2OC)OCO3)CCN1C(=O)OC(C)(C)C", "16.1%"),
    ("COc1ccc2c(c1OC)C(=O)O[C@@H]2[C@H]1c2c(c(C3CCCCC3)c3c(c2OC)OCO3)CCN1C(=O)OC(C)(C)C", "< 5%"),
    ("COc1ccc2c(c1OC)C(=O)O[C@@H]2[C@H]1c2c(c(C3CCN(C(=O)OC(C)(C)C)C3)c3c(c2OC)OCO3)CCN1C(=O)OC(C)(C)C (stereo partly specified)", "< 5%"),
]

----------
# reported inhibition of growth at 10 µM; entries follow
# System: A549
# PROCEDURE TEXT: Antiproliferative activity against human A549 cells assessed as cell growth inhibition at 10 uM incubated for 48 hrs by CCK8 assay relative to control
# Format: functional
# CONDITION: read-out: GI

# COMPOUND, inhibition of growth at 10 µM
rows = [
    ("COc1ccc2c(c1OC)C(=O)O[C@@H]2[C@H]1c2c(c(C3CC3)c3c(c2OC)OCO3)CCN1C(=O)OC(C)(C)C", "< 5%"),
    ("COc1ccc2c(c1OC)C(=O)O[C@@H]2[C@H]1c2c(c(C3CCN(C(=O)OC(C)(C)C)C3)c3c(c2OC)OCO3)CCN1C(=O)OC(C)(C)C (some centres not stated)", "17.7%"),
    ("COc1ccc2c(c1OC)C(=O)O[C@@H]2[C@H]1c2c(c(C3CCC3)c3c(c2OC)OCO3)CCN1C(=O)OC(C)(C)C", "< 5%"),
    ("COc1ccc2c(c1OC)C(=O)O[C@@H]2[C@H]1c2c(c(C34C[C@H]5C[C@H](C3)C[C@@H](C4)C5)c3c(c2OC)OCO3)CCN1C(=O)OC(C)(C)C", "< 5%"),
    ("COc1ccc2c(c1OC)C(=O)O[C@@H]2[C@H]1c2c(c(CCNC(=O)OC(C)(C)C)c3c(c2OC)OCO3)CCN1C(=O)OC(C)(C)C", "< 5%"),
    ("COc1ccc2c(c1OC)C(=O)O[C@@H]2[C@H]1c2c(c(CC3CCN3C(=O)OC(C)(C)C)c3c(c2OC)OCO3)CCN1C(=O)OC(C)(C)C (some centres not stated)", "< 5%"),
    ("COc1ccc2c(c1OC)C(=O)O[C@@H]2[C@H]1c2c(c(CCCCCC#N)c3c(c2OC)OCO3)CCN1C(=O)OC(C)(C)C", "< 5%"),
]
